Target: recombinant human TNF (hTNF) (human) (UniProt P01375)
Sequence (P01375 77-233 limits assumed): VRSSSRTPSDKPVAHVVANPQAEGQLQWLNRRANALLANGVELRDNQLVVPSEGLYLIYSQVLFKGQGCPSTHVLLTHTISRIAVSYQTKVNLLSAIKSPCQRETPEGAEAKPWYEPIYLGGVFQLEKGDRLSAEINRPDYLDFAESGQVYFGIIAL
Assay: cell-based or functional assay
Conditions: scale: ratio EC50 ESBA105 / EC50 test, in mass units [ng/ml]
Metric Name: L929* [EC50-E105 / EC50-X]
The response must contain the number and no unit.

Check out these entries, answers already filled in.
Binder	Quantitative Readout
EP35_max (scFv, from another filing) scFv: EIVMTQSPSTLSASVGDRVIITCQASQSISNLLAWYQQKPGKAPKLLIVAASKLASGVPSRFSGSGSGTEFTLTISSLQPDDFATYYCQQGWSHTNVDNTFGQGTKLTVLGGGGGSGGGGSGGGGSGGGGSEVQLVESGGGSVQPGGSLRLSCTASGFSFSVGYWICWVRQAPGKGLEWVACIDAGTSGGTYYATWAKGRFTISKDTSKNTVYLQMNSLRAEDTATYYCARGVSSNGYYFKLWGQGTTVTVSS	5.2
EP6_max (scFv, from another filing) scFv: EIVMTQSPSTLSASVGDRVIITCQASESIYSGLAWYQQKPGKAPKLLIYQASTLASGVPSRFSGSGSGTDFTLAISSLQPDDFATYYCQQGFGTSNVENPFGQGTKLTVLGGGGGSGGGGSGGGGSGGGGSEVQLVESGGGLVQPGGSLRLSCTVSGFSLSRYGVSWVRQAPGKGLEWVGTIGEAGRAYYANWARSRSTISRDTSKNTVYLQMNSLRAEDTAVYYCARGEVFNNGWGAFNIWGQGTLVTVSS	1.1
EP15_max (scFv, from another filing) scFv: EIVMTQSPSTLSASVGDRVIITCQASENIYTSLAWYQQKPGKAPKLLIYSASTLASGVPSRFSGSGSGTEFTLTISSLQPDDFATYYCQQGFATSNVENPFGQGTKLTVLGGGGGSGGGGSGGGGSGGGGSEVQLVESGGGSVQPGGSLRLSCTVSGFSLSRYGVSWVRQAPGKGLEWVGAIGETGRAYYANWAKSRSTISRDTSKNTVYLQMNSLRAEDTATYYCARGEEFNNGWGAFNIWGQGTTVTVSS	0.39
EP34_max (scFv, from another filing) scFv: EIVMTQSPSTLSASLGDRVIITCQSSQSVYGNIWMAWYQQKSGKAPKLLIYQASKLASGVPSRFSGSGSGAEFSLTISSLQPDDFATYYCQGNFNTGDRYAFGQGTKLTVLGGGGGSGGGGSGGGGSGGGGSEVQLVESGGGLVQPGGSLRLSCTASGFTISRSYWICWVRQAPGKGLEWVACIYGDNDITPLYANWAKGRFPVSTDTSKNTVYLQMNSLRAEDTAVYYCARLGYADYAYDLWGQGTLVTVSS	10.5

Lookup result for EP43_max (scFv, from another filing) scFv: EIVMTQSPSTLSASVGDRVIIKCQASQSISDWLAWYQQKPGKAPKLLIYGASRLASGFPSRFSGSGSGAEFTLTISGLEPADFATYYCQQGWSDSYVDNLFGQGTKLTVLGGGGGSGGGGSGGGGSGGGGSEVQLVESGGGLVQPGGSLRLSCTVSGFSLSSGAMSWVRQAPGKGLEWVGVIISSGATYYASWAKGRFTISKDTSKNTVYLQMNSLRAEDTAVYYCARGGPDDSNSMGTFDPWGQGTLVTVSS ; measured L929* [EC50-E105 / EC50-X]: 6.4
